Quick reference for GI50 among some molecules
System: KM12
Assay: NCI tumour cell line growth inhibition, 48 h
Activity calls are given as the source filed them. No stated cut-off is given here; in the data, active = GI50 up to about 1.1 µM and inactive = higher.
readout: GI50

{"smiles string": "CC1=NC=C(O)c2ccccc2O1", "result": "> 100 µM (inactive)"}
{"smiles string": "Oc1ccc2ccccc2c1/N=N/c1cccc2ccccc12", "result": "> 100 µM (inactive)"}
{"smiles string": "O=C(/C=C/c1ccc(O)c(O)c1)OCCc1cccc2ccccc12", "result": "3.55 µM (inactive)"}
{"smiles string": "Cc1nc(N(C(C)C)C(C)C)c(C(C)C)o1", "result": "> 100 µM (inactive)"}
{"smiles string": "CCCCSC1=N/C(=C\\c2ccco2)C(=O)N1", "result": "37.6 µM (inactive)"}
